target: nNOS (type 1) (Rattus norvegicus); construct: from tissue; host or cells: rat cerebral cortex, 100,000 x g supernatant (cytosol); assay: NOS activity, conversion of L-[3H]arginine to L-[3H]citrulline, crude enzyme of nNOS; assay type: biochemical; conditions: index of selectivity
Where a name gives a salt, the structure may show the parent alone.
PROPERTY_MEASURED: Ratio of IC50 eNOS/nNOS
Give bare numbers.

Use the examples below as a reference point.
>>> df
                                   compound  readout_value
0  CSC(=N)NCCC[C@H](N)C(=O)O [L-MIN, S-methyl-L-thiocitrulline, reference compound]           6.28
1  CCSC(=N)Nc1ccc(-n2cccc2)c(CN)c1 [Example 1, dihydrochloride]            515
2  CCSC(=N)Nc1ccc(-n2cccn2)c(CN)c1 [Example 2, dihydrochloride]            816

// switching to the query compound
Item: CCSC(=N)Nc1ccc(-n2cccn2)c(CN)c1C [Example 7, dihydrochloride] | Ratio of IC50 eNOS/nNOS: 943

* * *

target: UniProt Q06518; assay: NOS activity, conversion of L-[3H]arginine to L-[3H]citrulline, iNOS; assay type: biochemical; conditions: 100 nM L-[3H]arginine, 37° C., 10 min
PROPERTY_MEASURED: IC50 (nM)
One number for each entry, in nM.

Solved cases (2 shown):
                                   compound  property_measured  result_units  readout_value
0  N=C(NCCC[C@H](N)C(=O)O)N[N+](=O)[O-] [L-NA, N^G-nitro-L-arginine]               IC50            nM           3460
1  COC(=O)[C@@H](N)CCCNC(=N)N[N+](=O)[O-] [L-NAME, N^G-nitro-L-arginine methyl ester, reference compound]               IC50            nM          13500

Recorded result, CCSC(=N)NCCC[C@H](N)C(=O)O [L-EIN, S-ethyl-L-thiocitrulline] , IC50: 6760

* * *

biological target: nNOS (type 1) (Rattus norvegicus, UniProt P29476); construct: from tissue; host or cells: rat cerebral cortex, 100,000 x g supernatant (cytosol); assay: NOS activity, conversion of L-[3H]arginine to L-[3H]citrulline, crude enzyme of nNOS; type: biochemical; conditions: crude enzyme from rat cerebral cortex, soluble cytosolic fraction; 100 nM L-[3H]arginine, 37° C., 10 min; read-out: IC50 (nM) nNOS (type 1)
Structures can show the parent of a compound that is named as a salt.
Assignment: determine reported IC50 for the given molecules.
Give bare numbers, in nM.

Some molecules with known IC50 results, for comparison:
                                   molecule                             tested_target  result_units  readout_value
0  CCSC(=N)Nc1ccc(-n2cccc2)c(CN)c1 [Example 1, dihydrochloride]  nNOS (type 1) (Rattus norvegicus, UniProt P29476)            nM            3.7
1  CCSC(=N)Nc1ccc(-n2cccn2)c(CN)c1C [Example 7, dihydrochloride]  nNOS (type 1) (Rattus norvegicus, UniProt P29476)            nM           22.4

Let's switch to this molecule now.
Just so you know, measured IC50 for CCSC(=N)Nc1ccc(-n2cccn2)c(CN)c1 [Example 2, dihydrochloride] came out at 6.3

* * *

target: nNOS (type 1) (Rattus norvegicus, UniProt P29476); construct: from tissue; host or cells: rat cerebral cortex, 100,000 x g supernatant (cytosol); assay: NOS activity, conversion of L-[3H]arginine to L-[3H]citrulline, crude enzyme of nNOS; type: biochemical
What pIC50 was measured for each of the following?
Numbers only, as −log10 of the molar value.

>>> df
                     compound  property_measured  readout_value
0  CCSC(=N)NCCC[C@H](N)C(=O)O              pIC50           8.08

Continue with the compound presented below.
Sample CSC(=N)NCCC[C@H](N)C(=O)O [L-MIN, S-methyl-L-thiocitrulline, reference compound] ; pIC50 observed: 8.24

* * *

target: eNOS (type 3) (Bos taurus, UniProt P29473); construct: Cow pulmonary arterial endothelium cells (CPAE) were cultured in a MEM medium containing 20% FBS; endogenous in cells; host or cells: CPAE (cow pulmonary arterial endothelium cells), detergent extract, 100,000 x g supernatant; assay: NOS activity, conversion of L-[3H]arginine to L-[3H]citrulline, crude enzyme of eNOS; type: biochemical, cow; conditions: crude enzyme from cow pulmonary arterial endothelium cells (CPAE); 100 nM L-[3H]arginine, 37° C., 10 min
Where a name gives a salt, the structure may show the parent alone.
Assign IC50 to each entry below.
Write the numeric value and follow it with the unit.

Worked examples follow.
>>> df
                                   molecule                             tested_target  property_measured  readout_value
0  COC(=O)[C@@H](N)CCCNC(=N)N[N+](=O)[O-] [L-NAME, N^G-nitro-L-arginine methyl ester, reference compound]  eNOS (type 3) (Bos taurus, UniProt P29473)               IC50         670 nM
1  CCSC(=N)Nc1ccc(-n2cccn2)c(CN)c1 [Example 2, dihydrochloride]  eNOS (type 3) (Bos taurus, UniProt P29473)               IC50        5130 nM
2  CCSC(=N)Nc1ccc(-n2cccn2)c(CN)c1C [Example 7, dihydrochloride]  eNOS (type 3) (Bos taurus, UniProt P29473)               IC50       21100 nM

Turning to the following molecule.
Measured IC50, CCSC(=N)NCCC[C@H](N)C(=O)O : 732 nM

* * *

target: iNOS (type 2) (Rattus norvegicus); experiment: NOS activity, conversion of L-[3H]arginine to L-[3H]citrulline, iNOS; format: biochemical; settings: 100 nM L-[3H]arginine, 37° C., 10 min
Sequence (Q06518 whole entry): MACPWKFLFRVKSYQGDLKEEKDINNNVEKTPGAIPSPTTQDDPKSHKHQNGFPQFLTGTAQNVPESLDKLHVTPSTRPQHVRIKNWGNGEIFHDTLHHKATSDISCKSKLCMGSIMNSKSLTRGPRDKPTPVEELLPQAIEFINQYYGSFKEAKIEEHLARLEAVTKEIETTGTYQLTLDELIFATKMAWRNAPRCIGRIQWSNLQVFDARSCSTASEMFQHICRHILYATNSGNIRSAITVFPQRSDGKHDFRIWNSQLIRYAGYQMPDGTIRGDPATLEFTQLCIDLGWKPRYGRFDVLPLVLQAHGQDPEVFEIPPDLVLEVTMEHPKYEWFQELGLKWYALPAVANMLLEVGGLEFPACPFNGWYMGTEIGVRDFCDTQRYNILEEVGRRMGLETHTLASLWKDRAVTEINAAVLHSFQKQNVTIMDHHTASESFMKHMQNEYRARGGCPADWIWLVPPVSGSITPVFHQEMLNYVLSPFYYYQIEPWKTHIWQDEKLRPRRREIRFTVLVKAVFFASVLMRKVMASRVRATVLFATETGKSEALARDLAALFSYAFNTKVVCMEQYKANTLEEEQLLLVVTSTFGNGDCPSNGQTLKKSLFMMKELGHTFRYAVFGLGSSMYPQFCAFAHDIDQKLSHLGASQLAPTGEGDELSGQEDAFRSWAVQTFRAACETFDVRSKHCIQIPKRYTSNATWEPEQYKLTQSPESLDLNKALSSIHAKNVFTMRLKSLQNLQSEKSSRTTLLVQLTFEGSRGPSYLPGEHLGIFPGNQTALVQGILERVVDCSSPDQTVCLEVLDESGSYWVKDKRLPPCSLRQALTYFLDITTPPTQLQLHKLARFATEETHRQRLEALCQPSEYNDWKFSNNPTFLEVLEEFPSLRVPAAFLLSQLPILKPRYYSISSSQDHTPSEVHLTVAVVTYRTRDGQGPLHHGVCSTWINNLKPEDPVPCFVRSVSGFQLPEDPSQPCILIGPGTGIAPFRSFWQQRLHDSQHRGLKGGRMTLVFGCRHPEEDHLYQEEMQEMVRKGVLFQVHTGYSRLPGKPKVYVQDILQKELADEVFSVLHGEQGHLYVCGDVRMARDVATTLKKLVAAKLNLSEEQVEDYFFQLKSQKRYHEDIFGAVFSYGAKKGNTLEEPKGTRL
Counter-ions that a name gives are not always drawn.
Task for the reader: assign each of the following molecules its reported IC50.
Answers are plain numbers, in nM.

Here's what some known entries look like.
In [3]: df
Out[3]:
                                   molecule                      tested_target  result_units  readout_value
0  CCSC(=N)Nc1ccc(-n2cccn2)c(CN)c1 [Example 2, dihydrochloride]  iNOS (type 2) (Rattus norvegicus)            nM          20500
1  CSC(=N)NCCC[C@H](N)C(=O)O [L-MIN, S-methyl-L-thiocitrulline, reference compound]  iNOS (type 2) (Rattus norvegicus)            nM            248
2  CCSC(=N)Nc1ccc(-n2cccc2)c(CN)c1 [Example 1, dihydrochloride]  iNOS (type 2) (Rattus norvegicus)            nM           7930

Next item in the queue.
Briefly, IC50 measured for N=C(NCCC[C@H](N)C(=O)O)NC1CC1 [L-CPA, N^G-cyclopropyl-L-arginine] : 7150

* * *

Give IC50 for every item shown.
target: eNOS (type 3) (Bos taurus); construct: Cow pulmonary arterial endothelium cells (CPAE) were cultured in a MEM medium containing 20% FBS; endogenous in cells; host or cells: CPAE (cow pulmonary arterial endothelium cells), detergent extract, 100,000 x g supernatant; assay: NOS activity, conversion of L-[3H]arginine to L-[3H]citrulline, crude enzyme of eNOS; type: biochemical, cow; conditions: crude enzyme from cow pulmonary arterial endothelium cells (CPAE); 100 nM L-[3H]arginine, 37° C., 10 min
Structures can show the parent of a compound that is named as a salt.
Answers are plain numbers, in nM.

>>> df
                        compound               tested_target  property_measured  result_units  readout_value
0  N=C(NCCC[C@H](N)C(=O)O)NC1CC1  eNOS (type 3) (Bos taurus)               IC50            nM           1540

Please report IC50 for every entry that follows.
1. CSC(=N)NCCC[C@H](N)C(=O)O [L-MIN, S-methyl-L-thiocitrulline, reference compound]
2. CCSC(=N)Nc1ccc(-n2cccc2)c(CN)c1 [Example 1, dihydrochloride]

[A]
1. 35.8
2. 1920
